Taken from paper PMC10397247.

- MEASUREMENT_TARGET: T1, 4H87-AA
- T1 chain: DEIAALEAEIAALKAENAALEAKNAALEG
- EXPERIMENTAL_DETAILS: two-hybrid library CCmax;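 also: natural log of median RNA to DNA barcode read ratio; higher means stronger binding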
- APPLIED_CONDITIONS: mean of both orientations
binders and their reported interaction score
OUTCOME_MEASURE: interaction score

- DKIAALKAENAALKAEIAALEAKIAALKG [4H2758-AA]: -1.35
- DKIAALEAKNAALKAEIAALKAKNAALKG [4H2512-AA]: -0.485
- DKIAALKAEIAALKAKNAALKAKNAALEG [4H2687-AA]: 1.53
- DEIAALEAKIAALEAENAALEAKIAALKG [4H278-AA]: -1.44
- DKNAALEAEIAALEAKNAALKAKIAALKG [4H3134-AA]: -0.703
- DKIAALEAENAALEAEIAALKAENAALEG [4H2187-AA]: -2.2
- DKNAALEAKIAALKAENAALEAEIAALEG [4H3409-AA]: -1.93
- DENAALKAENAALEAKIAALKAKIAALKG [4H1710-AA]: -1.16
- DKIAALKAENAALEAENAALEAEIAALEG [4H2705-AA]: -1.62
